test system: SK-CO-1 (Colorectal Carcinoma); experiment: Bliss excess, mean over the matrix (fraction); higher = more synergy;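 also: after 72 h of two-drug dosing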
measurement type: Bliss excess

CC(=O)c1c(C)c2cnc(Nc3ccc(N4CCNCC4)cn3)nc2n(C2CCCC2)c1=O [Palbociclib] + Cc1c2c(nn1C)CSCc1cc(n(C)n1)CSc1cc(c3ccccc3c1)OCCCc1c(C(=O)O)n(C)c3c-2c(Cl)ccc13 [AZD5991] (first compound max 10 µM, 7x7, partner max 1 µM) | -0.035
CC1(C)CCC(CN2CCN(c3ccc(C(=O)NS(=O)(=O)c4ccc(NCC5CCOCC5)c([N+](=O)[O-])c4)c(Oc4cnc5[nH]ccc5c4)c3)CC2)=C(c2ccc(Cl)cc2)C1 [Venetoclax] + C[C@@H](Nc1cc(F)cc(F)c1)c1cc(C(=O)N(C)C)cc2c(=O)cc(N3CCOCC3)oc12 [AZD8186] (first compound max 1 µM, 7x7, partner max 3 µM) | -0.0782
N#Cc1cnc(Nc2cc(NC[C@H]3CNCCO3)c(C(F)(F)F)cn2)cn1 [SRA737] + O=c1[nH]cc(F)c(=O)[nH]1 [5-Fluorouracil] (first compound max 10 µM, 7x7, partner max 20 µM) | 0.0188
CC(=O)c1c(C)c2cnc(Nc3ccc(N4CCNCC4)cn3)nc2n(C2CCCC2)c1=O [Palbociclib] + CC1(C)CCC(CN2CCN(c3ccc(C(=O)NS(=O)(=O)c4ccc(NCC5CCOCC5)c([N+](=O)[O-])c4)c(Oc4cnc5[nH]ccc5c4)c3)CC2)=C(c2ccc(Cl)cc2)C1 [Venetoclax] (first compound max 10 µM, 7x7, partner max 1 µM) | -0.122
CN(CCO)CC[C@H](CSc1ccccc1)Nc1ccc(S(=O)(=O)NC(=O)c2ccc(N3CCC([C@@H](O)c4ccccc4-c4ccc(Cl)cc4)CC3)cc2)cc1S(=O)(=O)C(F)(F)F [AZD4320] + CS(=O)(=O)CCNCc1ccc(-c2ccc3ncnc(Nc4ccc(OCc5cccc(F)c5)c(Cl)c4)c3c2)o1 [Lapatinib] (first compound max 1 µM, 7x7, partner max 10 µM) | 0.0785

Now take the following compound into account.
Item: CCN(CCO)CCCOc1ccc2c(Nc3cc(CC(=O)Nc4cccc(F)c4)[nH]n3)ncnc2c1 [AZD2811] + C=CCn1c(=O)c2cnc(Nc3ccc(N4CCN(C)CC4)cc3)nc2n1-c1cccc(C(C)(C)O)n1 [AZD1775] (first compound max 1 µM, partner max 1 µM) | Bliss excess: -0.0559

====

test system: AM-38 (Glioblastoma); assay: combination Emax (second highest fraction inhibited in the dose matrix, 72 h); higher = more inhibition; extreme values may be limits of the assay
Measured combination Emax accompanies every entry in the list below.
Note: the reply should be a number with no unit written.

CN(CCO)CC[C@H](CSc1ccccc1)Nc1ccc(S(=O)(=O)NC(=O)c2ccc(N3CCC([C@@H](O)c4ccccc4-c4ccc(Cl)cc4)CC3)cc2)cc1S(=O)(=O)C(F)(F)F [AZD4320] + CN(C)CCCOc1ccc(-c2ccc3ncc4c(c3c2)n(C2CCOCC2)c(=O)n4C)cn1 [AZD0156] (first compound max 1 µM, 7x7, partner max 1 µM) | 0.718
CC1(C)CCC(CN2CCN(c3ccc(C(=O)NS(=O)(=O)c4ccc(NCC5CCOCC5)c([N+](=O)[O-])c4)c(Oc4cnc5[nH]ccc5c4)c3)CC2)=C(c2ccc(Cl)cc2)C1 [Venetoclax] + CN(C)CCCOc1ccc(-c2ccc3ncc4c(c3c2)n(C2CCOCC2)c(=O)n4C)cn1 [AZD0156] (first compound max 1 µM, 7x7, partner max 1 µM) | 0.209
NC1(C(=O)N[C@@H](CCO)c2ccc(Cl)cc2)CCN(c2ncnc3[nH]ccc23)CC1 [Capivasertib] + COc1nnc2ccc(N3CCC(c4ccc(OCCN5CCN(C)C(=O)[C@H]5C)cc4)CC3)nn12 [AZD5153] (first compound max 10 µM, 7x7, partner max 1 µM) | 0.448
CN(CCO)CC[C@H](CSc1ccccc1)Nc1ccc(S(=O)(=O)NC(=O)c2ccc(N3CCC([C@@H](O)c4ccccc4-c4ccc(Cl)cc4)CC3)cc2)cc1S(=O)(=O)C(F)(F)F [AZD4320] + C[C@@H]1COCCN1C2=NC(=NC(=C2)C3(CC3)[S@](=N)(=O)C)C4=C5C=CNC5=NC=C4 [AZD6738] (first compound max 1 µM, 7x7, partner max 10 µM) | 0.95
COc1cccc(OCCCN)c1-c1cc(Nc2cnc(C#N)cn2)n[nH]1 [Prexasertib] + C=CCn1c(=O)c2cnc(Nc3ccc(N4CCN(C)CC4)cc3)nc2n1-c1cccc(C(C)(C)O)n1 [AZD1775] (first compound max 1 µM, partner max 1 µM) | 0.857
NC1(C(=O)N[C@@H](CCO)c2ccc(Cl)cc2)CCN(c2ncnc3[nH]ccc23)CC1 [Capivasertib] + Cn1cnc2c(F)c(Nc3ccc(Br)cc3Cl)c(C(=O)NOCCO)cc21 [Selumetinib] (first compound max 10 µM, 7x7, partner max 10 µM) | 0.675
CN(CCO)CC[C@H](CSc1ccccc1)Nc1ccc(S(=O)(=O)NC(=O)c2ccc(N3CCC([C@@H](O)c4ccccc4-c4ccc(Cl)cc4)CC3)cc2)cc1S(=O)(=O)C(F)(F)F [AZD4320] + C=CCn1c(=O)c2cnc(Nc3ccc(N4CCN(C)CC4)cc3)nc2n1-c1cccc(C(C)(C)O)n1 [AZD1775] (first compound max 1 µM, partner max 1 µM) | 0.834
NC1(C(=O)N[C@@H](CCO)c2ccc(Cl)cc2)CCN(c2ncnc3[nH]ccc23)CC1 [Capivasertib] + CCN(CCO)CCCOc1ccc2c(Nc3cc(CC(=O)Nc4cccc(F)c4)[nH]n3)ncnc2c1 [AZD2811] (first compound max 10 µM, 7x7, partner max 1 µM) | 0.285

Then there is this molecule:
GET /value?item= COc1cccc2c1C(=O)c1c(O)c3c(c(O)c1C2=O)C[C@@](O)(C(=O)CO)C[C@@H]3O[C@H]1C[C@H](N)[C@H](O)[C@H](C)O1 [Doxorubicin] + Cc1cc2ncnn2cc1Nc1ncc2c(n1)n(C1CCOCC1)c(=O)n2C [AZD7648] (first compound max 1 µM, 7x7, partner max 10 µM) &field=combination Emax returns 0.826
